- Tested on: γ-globin mRNA
- method: γ-globin mRNA by RT-PCR in erythroid colonies cultured from cord blood
- Format: cell-based, human
- conditionDescription: increase in fetal globin mRNA, erythroid colonies from cord blood
- Description: γ-globin mRNA was analyzed in control and treated erythroid colonies cultured from cord blood, by RT-PCR.
Concentration required overview
recordedMetric: Concentration required (µM)

INSERT INTO assay_data (compound, recordedmetric, measvalue) VALUES
  ('COc1cc(OC)nc(SC(C(=O)O)C(C)C)n1 (racemic) [Compound Y]', 'Concentration required', 5),
  ('COc1cc(OC)nc(S[C@H](C(=O)O)C(C)C)n1 [Y − S]', 'Concentration required', 5),
  ('COc1cccc(SCC(=O)O)c1 [V]', 'Concentration required', 5),
  ('COc1cc(OC)nc(S[C@@H](C(=O)O)C(C)C)n1 [Y + R]', 'Concentration required', 5),
  ('Cc1cc2c(C(=O)O)cccc2o1 [2-methyl-1-benzofuran-4-carboxylic acid]', 'Concentration required', 5),
  ('O=C(O)c1cccc(Cn2cc([N+](=O)[O-])cn2)c1 [Compound W]', 'Concentration required', 40),
  ('O=C(O)C=Cc1csc(Cl)c1 [3-(5-chlorothien-3-yl)acrylic acid]', 'Concentration required', 30),
  ('CCC(Nc1ncnc2ccccc12)C(=O)O (stereo not drawn) [Compound M]', 'Concentration required', 5),
  ('O=C(O)c1cccc(-c2cc3ccccc3oc2=O)c1 [Compound P]', 'Concentration required', 20);
